Data credit: ChEMBL document CHEMBL3044901

- Tested on: Oryza sativa
- Protocol summary: Phytotoxicity against Oryza sativa exposed to compound spraying at […] measured 7 days post compound treatment by post-emergence glasshouse test
- Type: organism-based
- Condition: in vivo, other, 168 h
Assign Phytotoxicity to each entry below.
One number for each entry, in %.

// each listed compound needs a value for Phytotoxicity
1. CC(=O)ON1C(=O)C(c2c(C)cc(C)cc2C)=C(OC(=O)CC(C)(C)C)C1(C)C
2. CON1C(=O)C(c2c(C)cc(C)cc2C)=C(O)C1(C)C
3. CCCON1C(=O)C(c2c(C)cc(C)cc2C)=C(O)C1(C)C
4. Cc1cc(C)c(C2=C(O)C(C)(C)N(OCc3ccccc3)C2=O)c(C)c1

60
100
100
30

Look up Phytotoxicity for the entries below, preserving their order.
1. Cc1cc(C)c(C2=C(OC(=O)CC(C)(C)C)C(C)(C)N(OS(C)(=O)=O)C2=O)c(C)c1
2. COCCON1C(=O)C(c2c(C)cc(C)cc2C)=C(O)C1(C)C
3. C=CCON1C(=O)C(c2c(C)cc(C)cc2C)=C(O)C1(C)C
4. Cc1cc(C)c(C2=C(OC(=O)CC(C)(C)C)C(C)(C)N(OCC#N)C2=O)c(C)c1
5. Cc1cc(C)c(C2=C(OC(=O)CC(C)(C)C)C(C)(C)N(OC(=O)CC(C)(C)C)C2=O)c(C)c1
6. Cc1cc(C)c(C2=C(O)C(C)(C)N(OC(C)C)C2=O)c(C)c1
7. CCOCON1C(=O)C(c2c(C)cc(C)cc2C)=C(OC(=O)CC(C)(C)C)C1(C)C
8. CSCON1C(=O)C(c2c(C)cc(C)cc2C)=C(O)C1(C)C

1: 0; 2: 90; 3: 100; 4: 0; 5: 0; 6: 100; 7: 0; 8: 90

Batch of 6 compounds: report Phytotoxicity for each.
1. CON1C(=O)C(c2c(C)cc(C)cc2C)=C(OC(=O)CC(C)(C)C)C1(C)C
2. COCON1C(=O)C(c2c(C)cc(C)cc2C)=C(O)C1(C)C
3. Cc1cc(C)c(C2=C(OC(=O)CC(C)(C)C)C(C)(C)N(O)C2=O)c(C)c1
4. Cc1cc(C)c(C2=C(OC(=O)CC(C)(C)C)C(C)(C)N(OC(=O)N(C)C)C2=O)c(C)c1
5. C#CCON1C(=O)C(c2c(C)cc(C)cc2C)=C(O)C1(C)C
6. Cc1cc(C)c(C2=C(O)C(C)(C)N(O)C2=O)c(C)c1

1. 30
2. 100
3. 30
4. 0
5. 100
6. 90
